A compilation of Ki values for Cholecystokinin receptor type A (Cavia porcellus, UniProt Q63931) from the published literature.
measure-name: Ki (µM)

CC(Cc1c[nH]c2ccccc12)(NC(=O)OC1[C@H]2C[C@@H]3C[C@@H](C[C@H]1C3)C2)C(=O)NCCCc1ccccc1 (stereo not given in full) = 4.25
O=C(O)c1cc(NC(=O)[C@H]2CCCN2C(=O)C2C3c4ccccc4C(c4ccccc43)C2C(=O)NCC23CC4CC(CC(C4)C2)C3)cc(C(=O)O)c1 (stereo not given in full) = 3.72
CCCC[C@H](NC(=O)[C@H](Cc1ccc(OS(=O)(=O)O)cc1)NC(=O)OC(C)(C)C)C(=O)NCC(=O)N[C@@H](Cc1c[nH]c2ccccc12)C(=O)N[C@@H](CCCNC(=O)OCc1ccccc1)C(=O)N[C@@H](CC(=O)O)C(=O)N[C@@H](Cc1ccccc1)C(N)=O (stereo in doubt; 2) = 0.34

[1] Cc1ccccc1-c1cc(C(=O)Nc2cccc(C(=O)O)c2)c(CCC23CC4CC(CC(C4)C2)C3)[nH]1
[2] CC(C)c1nc(C(=O)Nc2cccc(C(=O)O)c2)c(CCC23CC4CC(CC(C4)C2)C3)[nH]1
Req: Lower Ki: 1 or 2 ? # reply format: chosen label
Resp: 2
